// data source = the domain aggregation screens of Martell et al. (2025)

- PROCEDURE DETAILS: soluble fraction after stress (log2 fold change); higher = more stays soluble; pooled small domains, quantitative proteomics;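 note: 20 min heating vs room temperature control held 20 min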
- ASSAY CONDITIONS: stress: 75 degC
Returns label 1 if the recorded soluble fraction (log2) is greater than or equal to -0.4, and label 0 otherwise.

Exam item: decide whether the reported soluble fraction (log2) for HMSEPHPPFQVVAQFPYKSEYEDDLNFEKDQIITVTSIEDDEWYYGDFKNKGGELVEGIFPKSFVTVK is at least -0.4.
label 1

* * *

# Lookup of reported soluble fraction (log2) keyed by entry
- PROCEDURE DETAILS: soluble fraction after stress (log2 fold change); higher = more stays soluble; pooled small domains, quantitative proteomics
- ASSAY CONDITIONS: stress: 75 degC
API doc: respond with a numeric literal and nothing else, no unit.

Below, each entry is followed by its recorded soluble fraction (log2) result.
- HMPVTAQFDFSKVLAGRTLKDGEFSFVLKDKNGTVLQTKTNDASGKVAFDALIYKNNEVGEHKYTVEEVI: 0.237
- HMINIDESIDESLSEDDAVLDLLERASASFTKAQEALLEGDLGRYQTLIEQADRLVAKALELLDEKN: -0.808
- HMNEGETLYRLRAGDGRARLDKFLAAALPDISRTRFKGLIESGHVRVGGETITEPAYRVKSEAEVELTVPE: 0.0126

Look up soluble fraction (log2): HMARRTPPPTVSELNALLRVAAPHIQRVILLGIYTGARIGPSELFSLKWDDVDLTRGVIGIRL
-0.0659

* * *

- PROCEDURE DETAILS: soluble fraction after stress (log2 fold change); higher = more stays soluble; pooled small domains, quantitative proteomics
- ASSAY CONDITIONS: stress: 75 degC
Recorded measurements of soluble fraction (log2), one per entry
# output: bare number, no unit

• HMSKKLLVLQTSDDAKAKDVLSQNGYQLDDGDKLSIIETEQTKMADVIKLLSDNAIDIEDVQHVH = 0.14
• HMGSNATIKYAIKGDESLVQVAQKFNVTVSELRSWNNISAFENAKTGQELVINVPASKYETYFALANT = 0.403
• HMGESYQIKDGELLVDIAQRVKPAGMTLRQTINALVAANPRAFRNGNPDLMYRGATLTIPDGDTLRRLAH = -0.0841

For the next question, use this sequence.
Fill in: soluble fraction (log2) of HMRRSSQQLTLTEVSTIKEMVTSEEYRHVPTGTLALLAQRLRKVFASSSTWYRLVRIYKWRRPRGRIH is ___
-0.329

* * *

- PROCEDURE DETAILS: soluble fraction after stress (log2 fold change); higher = more stays soluble; pooled small domains, quantitative proteomics
- ASSAY CONDITIONS: stress: 75 degC
# soluble fraction (log2) values compiled below
Just the number.

Some sequences with known soluble fraction (log2) results, for comparison:
- HMVSPFQQQIADKVHNEIIAAKFNYDNATNENERLLAQLQAKKARELANQYGLDMSSYGADTTAERS: 0.61
- HMQVLLTRREKEILKLIAEGLTSAEIGKRLFISTTTVDTHRKHLLEKLKAGNTAILIKTAVQLDLI: -2.53

Endpoint output: soluble fraction (log2) of HMSGALDTVVGIRMLKLLSTPIEKSKAFQVGIINKDGKKLRDPTSGERQHYTFLNRFVFKVQYALMRS . Value?
-0.549

Next sequence up: HMQAQQYYMLLMNKATSALKIEALGANSNKAHQSFGTKTAGGSAVYWGILFNSNGKIYKIVG
-3.06

Another sequence: HMTFPIDINRADTEQLTALPGIGEVLAKRIIAYREENGSFLSTDELKNVEGIGEKRLEAIVDLITIG
0.145

Also, HMVLGSSVAMGQKIGDSDLTWVEVPLSSAFDRFLSEPEWRGSSDLVAARLLEAGVFLTEDDVVE please.
0.0533

Repeat with HMDNMTEMQKAVTALIEKSGGSIDNLSVIYDHLKKKYPSFDLKDYGYSRFSSFLRSMENIMVRGNAVTLRS
-0.211

Then HMLSGGEVKRIEIATILARKSGLMIFDEPEAGIDLWSFARLVETFEDIRSNTSGSLVIISHQ ?
0.0709
